The reported numbers originate from ChEMBL document CHEMBL1124216.

System: Mus musculus
Assay: Exploratory activity of mice determined by an antimex activity meter, 50 mg/kg of dose was administered perorally
Assay type: functional
Details: Mus musculus, po
For each entry below, report its inhibition in vivo at 50 mg/kg value.
Numbers only, in %.

Some compounds with recorded inhibition in vivo at 50 mg/kg:
smilesInput: CCCN1CCN(C2=Nc3ccccc3CC=C2c2ccc(F)cc2)CC1.O=C(O)/C=C/C(=O)O
inhibition in vivo at 50 mg/kg [%]: 61.4
//
smilesInput: Fc1ccc(C2=CCc3ccccc3N=C2N2CCN(C3CCCCC3)CC2)cc1.O=C(O)/C=C/C(=O)O
inhibition in vivo at 50 mg/kg [%]: 84.6

Proceed to the following item.
Q: Fill in the blank: the reported inhibition in vivo at 50 mg/kg of CN1CCN(C2=Nc3ccccc3CC=C2c2ccc(F)cc2)CC1.Cl.Cl is ____.
Result: 79.3
